- Test system: MS2 coat protein
- Method: apparent KD of MS2 coat protein; designed switch direction (-1 OFF switch, 1 ON switch): -1; higher = weaker reporter binding
- Condition summary: input ligand: microRNA oligo, concentration not stated
Class 1: apparent KD of MS2 coat protein at least 20 nM. Class 0: apparent KD of MS2 coat protein below 20 nM.

Query block: Does apparent KD of MS2 coat protein meet or surpass 20 nM for UUCCUCUCUUCUCCGUCUCACAUGAGGAUCACCCAUGUAACAUAGGAUAUGCUUGGUAUUUAAAUGCAGAAGGAUGUUAGUAUU [JR_ExcNG3_Sub081] (Eterna round: R96, puzzle: Exclusion NG 3) ?
Result block: 1

Query block: And the next one, CCAUAUAACUGAGGAUAUGAUCACCACUAACAUUCAGAAGGCAGACAUGAGGAUCACCCAUGUGAUUUCUCAAUAUUAUACAUC [Prohibition 76 - Jieux - Exclusion NG 1] (Eterna round: R96, puzzle: Exclusion NG 1) ?
Result block: 1

Query block: And the next one, ACGCAUUGCCUUUGGUAGUGCGUAACAUGAGGAUCACCCAUGUAGGAUAUGGUAGGCUUUGCUUACCAGAAGGACAUUGUUGAU [Omei mod of JL ENG3 1.03] (Eterna round: R96, puzzle: Exclusion NG 3) ?
Result block: 1

Query block: And the next one, UAUAUAUAGUAAGGAUAUGUAUUAAUUUUGUAAACAGAAGGUACUGACAUGAGGAUCACCCAUGUUUUAGUGUGGGCAUGUAGA [JMF's solution 87] (Eterna round: R96, puzzle: Exclusion NG 1) ?
Result block: 1

Query block: And the next one, AAGGGUACUUUCGGAACGACAUGAGGAUCACCCAUGUAUACUGAGGAUAUCCACUACUAAGGACGGGAGAAGGCAGUGUACUGU [Ex NG3 #79] (Eterna round: R96, puzzle: Exclusion NG 3) ?
Result block: 0

Query block: And the next one, UAGCGACCAUACAUGAGGAUCACCCAUGUGAAUGCCCACCGCGAGGAUAUCGAGUCCACUCGGGCCGAGAAGGCGCGACCUCAA [Eternabot solution 43] (Eterna round: R96, puzzle: Exclusion NG 3) ?
Result block: 0

Query block: And the next one, UAAUUAAUAAGAUCAAUUAAUUAACAUGAGGAUCACCCAUGUGAGGAUAUCAGCUCGUUUAGAGCUGAGAAGGCACAAUAAUUA [ExNG3/17-C2] (Eterna round: R96, puzzle: Exclusion NG 3) ?
Result block: 1

Query block: And the next one, UACAUGAGGAUCACCCAUGUUUUGUCGUGUAUGGUAUUUAUCUAGGAUAUCAAGUUAAUUAUUUAUGAGAAGGAGAAUAUUAAU [JMF's solution 28] (Eterna round: R96, puzzle: Exclusion NG 3) ?
Result block: 1

Query block: And the next one, UAUCCACAUGAGGAUCACCCAUGUGAGGAUAUGUCCAUAUUCGGCAAAUCGGAUAUGGACAGAAGGCACACCGG [JR_Exclusion1_Sub011] (Eterna round: R96, puzzle: Exclusion 1) ?
Result block: 1

Query block: And the next one, UACAUGAGGAUCACCCAUGUUUUGUCGUGUAUGGUAUUUAUCUAGGAUAUCAAUCAAUUUAUUUAUGAGAAGGAGAAUAUUAAU [JMF's solution 49] (Eterna round: R96, puzzle: Exclusion NG 3) ?
Result block: 1

Query block: And the next one, AUCCGUUGUAUAGGAUAUAAGUGUAAACUGUACUUAGAAGGAUACAUGAGGAUCACCCAUGUUGUAAUAGAUGAGCAUAGAGCA [Eternabot solution 6] (Eterna round: R96, puzzle: Exclusion NG 1) ?
Result block: 1

Query block: And the next one, ACAUGAGGAUCACCCAUGUCCGUCUGGUCUGUCUCGGCUGUCGAGGAUAUAGCCCGGUAUCCGCGCUAGAAGGCGGGAGUCGGC [Aenatbe mod 97] (Eterna round: R96, puzzle: Exclusion NG 3) ?
Result block: 1

Query block: And the next one, CAGUACUGAGGAUAUACAUGAGGAUCACCCAUGUGUUCCAGCUAGGAAACUAGCUAAAGUAGAAGGCAGUACUG [salish99_ex3_r3_092x] (Eterna round: R96, puzzle: Exclusion 3) ?
Result block: 0

Query block: And the next one, CUCCUACUUGUAGGAUAUCAGAGAUAACAUGAGGAUCACCCAUGUUGGGUCAUCAACUCAGUCGGUGAGAAGGACAGAAGUUGG [Eternabot solution 42] (Eterna round: R96, puzzle: Exclusion NG 2) ?
Result block: 1

Query block: And the next one, UACAUGAGGAUCACCCAUGUUUUGUCGUGUAUGGUAUUUAUCUAGGAUAUCAAGUUACUUAUUUAUGAGAAGGAGAAUAUUAAU [JMF's solution 30] (Eterna round: R96, puzzle: Exclusion NG 3) ?
Result block: 1

Query block: And the next one, AACGUGCUGCGAGGAUAUACAUGAGGAUCACCCAUGUGGAUGUCUGAGGCAAAGCCUCAGACAAUGUAGAAGGCGCAGUACGAA [Mat - Exclusion NG 2 - Mod of JL - D57] (Eterna round: R96, puzzle: Exclusion NG 2) ?
Result block: 0

Query block: And the next one, AUGUUAUUCUGAGGAUAUUGUUUAUUCUUCUCACAUGAGGAUCACCCAUGUUUCCGUGUUUACCGCAAGAAGGCAGUUUUGUUU [JR_ExcNG2_Sub027] (Eterna round: R96, puzzle: Exclusion NG 2) ?
Result block: 1

Query block: And the next one, UAUCGGGACUGAGGAUAUUCGUUCGAACACGAAGAAGAAGGUAGUGUCAGGGACAUGAGGAUCACCCAUGUGAUCUCAGUCCUA [JL ViennaUCT Erinle mod 2] (Eterna round: R96, puzzle: Exclusion NG 1) ?
Result block: 1

###

- System: MS2 coat protein
- Method: apparent KD of MS2 coat protein; higher = weaker reporter binding
- Condition summary: Eterna round: R107; input ligand: arginine 13.2 mM
So basically every entry gets a class from its apparent KD of MS2 coat protein, ranges being 1 (below 20 nM), 2 (20 nM to below 40 nM), 3 (40 nM or more)

Query block: Where would CCAGCCCUUCUAGAUACCAGCUUUCAAUAUAAGACAACUCACAUGAGGAUCACCCAUGUUAGCCCUUGGCAGCUAAGAUCCACAA [theeternabot_exclusion_MS2_Theo_B_32] land among the classes by reported apparent KD of MS2 coat protein?
Result block: 3

Query block: And the next one, UGUACCUAGUCGGCCGCCACUCAAUAAUGAGAGGAUCACCCUCAUAAACGAGUCAAAGACUCGAUGAGGACCGGGACUAGGUACU [Palindromic MS2 2 #AlternativeMS2 #Palindrome #StaticStem] ?
Result block: 3

Query block: And the next one, CUCUGAGUGAGAAAUCACUCAGAGGCGGAUACCAGCGAGGUCCAUCGCCCUUGGCAGCCGAACAUGAGGAUCACCCAUGUCGGUA [#1 Same State - Theophylline A Attempt #21 (HarryS)] ?
Result block: 1

Query block: And the next one, AAAAUCCUACCUGAGGAUCACCCUGGUGAAGGAGCGCCCGAAAGGGCAGGUAGGUCGCACCUGAGGAUCACCCGGGUAACCUAAA [ArgEX 14 #DoubleMS2 #OpenEnded #AlternativeMS2] ?
Result block: 3

Query block: And the next one, AGUUCCAGGUCGGCCGCCACUGGCGUGGCCGGUCCUCGGACUUACAUGAGGAUCACCCAUGUGAACAGGACCGGGACCGCAUGGG [Exclusion Tryptophan B GF 25] ?
Result block: 2

Query block: And the next one, ACAUGAGGAUCACCCAUGUGCCGUCUUGAUACCAGACCCGAAGUAGUCCCUUGGCAGCAACUACGUGACGGUCGCCCAUGUGUAG [rremullin] ?
Result block: 1

Query block: And the next one, CGACUGUAAAGUCGACCGGUCAUCAAUAAUCGAGGACCGGUACGGCCGCCACUCGAUGUGAUUUCACAUGAGGAUCACCCAUGUA [Tryptophan A 17] ?
Result block: 2

Query block: And the next one, CGAAAGCUCCUUAUGUGCUUUCGACUGGAAGGAGCGAGCGAAAGCUCAGGUAGGUCGCCAGAAACAUGAGGAUCACCCAUGUAAU [(A)''-(M)'-(A)'(Arg1)-(Arg2)-(M1)-(M2)_Design9] ?
Result block: 2

Query block: And the next one, AAAUAAAUAACUGAUACCAGUCGGACAACAUGAGGAUCACCCAUGUUCACCCAUGUUGAGGACCCUUGGCAGCAGAAAUAUAAAA [test (nupak+vienna] ?
Result block: 3

Query block: And the next one, UCGCCCAGGUAGGCUUAAUGGGAUAUGGAAGGAGCGCUGAUGCCAGCAGGUAGGUCGCCAACGGACAUGAGGAUCACCCAUGUAC [Same State - Arginine A (Freestyle 4)] ?
Result block: 2
